The origin of these recorded values is patent US20240360101A1.

# Assay Overview: Gravimetric vapour sorption (GVS)
# Assay type: physicochemical
# Conditions: up to 90% RH, 25° C.
Value Type: GVS water gain, subsequent sorption cycle (%)

COc1cc(C2(F)CCN(C)CC2)ccc1-c1cc(Nc2cnc(C#N)cn2)n[nH]1 [maleate pattern B] :: 4
COc1cc(C2(F)CCN(C)CC2)ccc1-c1cc(Nc2cnc(C#N)cn2)n[nH]1 [malonate pattern B] :: 7.5

a: COc1cc(C2(F)CCN(C)CC2)ccc1-c1cc(Nc2cnc(C#N)cn2)n[nH]1 [Besylate Pattern A]
b: COc1cc(C2(F)CCN(C)CC2)ccc1-c1cc(Nc2cnc(C#N)cn2)n[nH]1 [Besylate Pattern C]
Returns: the argument ( a or b ) having the larger GVS water gain, subsequent sorption cycle. Answer by stating the label of the chosen item.
a
